Values were extracted from PubChem BioAssay AID1159580.

Assay: chemical genetic growth profiling, strain panel (AID 1159580);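 note: tested at 20 µM; growth read once vehicle control cultures reached saturation at 30 °C; 1 = growth at the plate median or of vehicle wells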
Settings: S. cerevisiae deletion strains, growth OD, locus YPL256C, strain CLN2, stronger effect = lower value
Among all 5,500 compounds or so, about 2,000 (36%) were called active. About 18% were inconclusive and are not listed. The list shows a part of the results.
Parameter normalized growth: see the listing below.
outcome-measure: normalized growth

INSERT INTO measurements (compound, outcome_measure, val) VALUES
  ('O=S(=O)(NCc1ccc(C(F)(F)F)cc1)c1cccc(C(F)(F)F)c1', 'normalized growth', 0.885),
  ('FC(F)(F)c1cc(NC(=S)SCCSC(=S)Nc2cc(C(F)(F)F)cc(C(F)(F)F)c2)cc(C(F)(F)F)c1', 'normalized growth', 0.926),
  ('COC[C@]12CN(C=O)C3[C@@H]4[C@H](OC)C1[C@]3(C1CC3(O)C(OC)C(O)C4(OC(C)=O)C1C3OC(=O)c1ccccc1)[C@@H](OC)C[C@H]2O (some centres undefined)', 'normalized growth', 1.08),
  ('O=NN(CCCl)C(=O)NCCCl', 'normalized growth', 0.352),
  ('CC(C)=CC1C(C(=O)OCc2cccc(Oc3ccccc3)c2)C1(C)C (centres undefined)', 'normalized growth', 0.995),
  ('CC(=O)O[C@]1(C)CC[C@@]23CC1C(C)(C)[C@@H]2CC[C@H]3C', 'normalized growth', 0.991),
  ('COc1cc(NS(C)(=O)=O)ccc1Cc1c2ccccc2nc2ccccc12', 'normalized growth', 0.944),
  ('O=C(O)C(O)C(O)C(=O)O (centres undefined)', 'normalized growth', 0.943),
  ('Cc1cccc(C)c1NC(=O)C1CCCCN1C (centres undefined)', 'normalized growth', 1.01),
  ('CC(=O)N[C@@H](CCC(=O)O)C(=O)O', 'normalized growth', 0.956),
  ('COc1ccc2oc(-c3ccccc3)c(OC)c(=O)c2c1', 'normalized growth', 0.939),
  ('O=C(O)C(O)C(O)C(O)C(O)C(=O)O (centres undefined)', 'normalized growth', 0.978),
  ('O=c1cccc2n1CC1CC2CN2CCCC[C@@H]12 (some centres undefined)', 'normalized growth', 1.01),
  ('CC(C)(S)[C@@H](N)C(=O)O', 'normalized growth', 0.986),
  ('COC(=O)[C@@H]1OC(=O)C2OC23[C@@]1(C)CCC1[C@]2(C)C(C[C@@H](O)[C@]13C)C(C)(C)[C@H](OC(C)=O)C[C@@H]2OC(C)=O (some centres undefined)', 'normalized growth', 1.01),
  ('O=c1oc2ccccc2cc1[N+](=O)[O-]', 'normalized growth', 0.0976),
  ('C=CCS(=O)C[C@H](N)C(=O)O (some centres undefined)', 'normalized growth', 1.02),
  ('O=C(O)C1CCCNC1 (centres undefined)', 'normalized growth', 0.983),
  ('C1N2CN3CN1CN(C2)C3', 'normalized growth', 0.948);

====

Assay: chemical genetic growth profiling, strain panel (AID 1159580)
Conditions: S. cerevisiae deletion strains, growth OD, locus YKL068W, stronger effect = lower value
Screen size: about 5,500 compounds; about 2,000 (36%) were called active. Inconclusive results (about 18%) are left out. Some of the results follow.
Here, each record is paired with measured normalized growth data.
outcome-measure: normalized growth

INSERT INTO results (compound, val) VALUES
  ('O=c1oc2ccccc2cc1O', 0.978),
  ('CN=C(N)NCCCC(N)C(=O)O (stereo not drawn)', 1.01),
  ('CN[C@@H]1C(OC2[C@H](O[C@H]3[C@H](O)[C@@H](O)[C@H](N=C(N)N)[C@@H](O)[C@@H]3N=C(N)N)OC(C)[C@]2(O)CO)OC(CO)C(O)C1O (stereo partly drawn)', 0.991);

====

Assay: chemical genetic growth profiling, strain panel (AID 1159580)
Details: S. cerevisiae deletion strains, growth OD, locus YPL256C, strain CLN2
Screen size: about 5,500 compounds; about 2,000 (36%) were called active. Another 18% or so got no clear call; they are omitted. No stated cut-off is given here; in the data, active means normalized growth mostly below about 0.91 (no sharp cut-off); inconclusive means no clear call, values can overlap the other calls; inactive means mostly above about 0.92. The list shows a part of the results.
Outcomes: active, inactive

INSERT INTO assay_data (compound, category_label) VALUES
  ('Cc1nnc(NS(=O)(=O)c2ccc(N)cc2)s1', 'inactive'),
  ('Clc1ccc(COC(Cn2ccnc2)c2ccc(Cl)cc2Cl)cc1 (configuration not stated)', 'active'),
  ('Clc1ccc(Oc2ccnc3cc(Cl)ccc23)cc1', 'active'),
  ('N/C(=N/O)c1ccc(Oc2ccc(C3SCCS3)cc2)c([N+](=O)[O-])c1', 'inactive'),
  ('CC(=O)O[C@H]1C[C@@H](OC(C)=O)C(C)(C)C2C[C@@H](O)[C@]3(C)C(CC[C@@]4(C)[C@H](c5ccoc5)OC(=O)[C@H]5O[C@]543)[C@]21C (some centres not stated)', 'inactive'),
  ('Clc1ccc(CSc2nccn2-c2cc(Cl)ccc2Cl)cc1', 'inactive'),
  ('CC(=O)O[C@@H]1CC2C(C)(C)[C@H](O)CC[C@]2(C)C2CC[C@@]3(C)[C@H](c4ccoc4)OC(=O)C4OC43[C@@]21C (some centres not stated)', 'inactive'),
  ('CNC(=O)Sc1c(-c2ccc(Cl)cc2)nn(C(=O)NC)c1SC', 'active'),
  ('O=C(NNc1ccccc1)c1cc(-c2ccc(Cl)cc2)oc1C(F)(F)F', 'active'),
  ('Cc1ccc(S(=O)(=O)Nc2nc(-c3ccc(C)c(Cl)c3)c(C)s2)cc1', 'active'),
  ('O=C(O)CCC1NCC2CC1CN1CCCCC21 (configuration not stated)', 'inactive'),
  ('CC12CCC3C(=CCc4cc(O)ccc43)C1CCC2=O (configuration not stated)', 'inactive');

====

Listed below: normalized growth values for each entry.
Experiment: chemical genetic growth profiling, strain panel (AID 1159580);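 note: tested at 20 µM; growth read once vehicle control cultures reached saturation at 30 °C; 1 = growth at the plate median or of vehicle wells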
Details: S. cerevisiae deletion strains, growth OD, locus YOR061W, strain CKA2, stronger effect = lower value
Hit rate of the full screen: of about 5,500 compounds, about 2,000 (36%) were called active. Another 18% or so got no clear call; they are omitted. The list shows a part of the results.
outcome-measure: normalized growth

INSERT INTO results (compound, val) VALUES
  ('NC1(C(=O)O)CCCC1', 1.01),
  ('COc1cc(OC)c2c(=O)cc(-c3ccccc3)oc2c1', 0.941),
  ('NC1(C(=O)O)CC1', 1.01),
  ('C[C@]12CCC3c4ccc(OC(=O)c5ccccc5)cc4CCC3C1CCC2=O (stereo partly drawn)', 1.01),
  ('C[C@]12CCC3C(CC[C@H]4C[C@@H](O)CC[C@]34C)C1CC[C@@H]2O (stereo partly drawn)', 0.99),
  ('Clc1ccc(CSC(Cn2ccnc2)c2ccc(Cl)cc2Cl)cc1 (stereo not drawn)', 0.0436),
  ('NCCCCCC(=O)O', 0.994),
  ('COc1ccc(Nc2nc(NC(=O)Nc3ccc(Cl)cc3)n[nH]2)cc1', 0.741),
  ('CN[C@@H]1C(OC2[C@H](O[C@H]3[C@H](O)[C@@H](O)[C@H](N=C(N)N)[C@@H](O)[C@@H]3N=C(N)N)OC(C)[C@]2(O)CO)OC(CO)C(O)C1O (stereo partly drawn)', 0.991),
  ('Cc1cccc(N=NC(C(=O)C(F)(F)F)=C(O)c2cccs2)c1', 0.983),
  ('CC(=O)OC1CC(O)C(C)(C)C2CC(=O)C3(C)C(CCC4(C)C(c5ccoc5)OC(=O)C5OC543)C12C (stereo not drawn)', 0.991),
  ('c1ccc2c(CC3=NCCN3)cccc2c1', 1.01),
  ('CC(=O)C1CC[C@H]2C3CC[C@H]4C[C@H](O)CC[C@]4(C)C3CC[C@]12C (stereo partly drawn)', 1.01);

====

# normalized growth per entry
Experiment: chemical genetic growth profiling, strain panel (AID 1159580);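 note: tested at 20 µM; growth read once vehicle control cultures reached saturation at 30 °C; 1 = growth at the plate median or of vehicle wells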
Details: S. cerevisiae deletion strains, growth OD, locus YMR125W, strain sto1, stronger effect = lower value
Hit rate of the full screen: of about 5,500 compounds, about 2,000 (36%) were called active. Another 18% or so got no clear call; they are omitted. The list shows a part of the results.
outcome-measure: normalized growth

INSERT INTO results (molecule, val) VALUES
  ('Fc1ccc([C@@H]2CCNC[C@H]2COc2ccc3c(c2)OCO3)cc1', 0.999),
  ('O=C(O)COc1ccc(Cl)cc1Cl', 0.993),
  ('Cc1nnc(NS(=O)(=O)c2ccc(N)cc2)s1', 0.998);

====

Listed molecules paired with reported normalized growth
Experiment: chemical genetic growth profiling, strain panel (AID 1159580);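 note: tested at 20 µM; growth read once vehicle control cultures reached saturation at 30 °C; 1 = growth at the plate median or of vehicle wells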
Details: S. cerevisiae deletion strains, growth OD, locus YKL160W, strain elf1, stronger effect = lower value
The whole screen tested about 5,500 compounds, of which about 2,000 (36%) were called active. About 18% were inconclusive and are not listed. The list shows a part of the results.
outcome-measure: normalized growth

INSERT INTO results (molecule, outcome_measure, val) VALUES
  ('C1N2CN3CN1CN(C2)C3', 'normalized growth', 0.973),
  ('COc1ccc(CCC(=O)c2c(O)cc(O[C@@H]3O[C@H](CO)C(O)[C@H](O)C3O[C@@H]3O[C@@H](C)[C@H](O)[C@@H](O)[C@H]3O)cc2O)cc1O (some centres undefined)', 'normalized growth', 1),
  ('CC(=O)O[C@H]1CC[C@@]2(C)C(C[C@@H](OC(C)=O)[C@]3(C)C2CC[C@@]2(C)[C@H](c4ccoc4)OC(=O)[C@H]4O[C@]423)C1(C)C (some centres undefined)', 'normalized growth', 1.02),
  ('CC(=O)C1CC[C@H]2C3CC[C@H]4C[C@H](O)CC[C@]4(C)C3CC[C@]12C (some centres undefined)', 'normalized growth', 0.976);
